Attribute: pIC50
target: human mGlu5 (Homo sapiens); construct: expressed in transfected cells; host or cells: HEK 293A; experiment: mGlu5 negative allosteric modulator Ca2+ flux assay in HEK 293A cells (Table 1); format: cell-based; details: HEK 293A cells stably expressing mGlu5; Ca2+ flux (Fluo-4); decrease of glutamate EC80 response; read-out: hmGlu5 NAM IC50
Sequence (P41594 21-1212): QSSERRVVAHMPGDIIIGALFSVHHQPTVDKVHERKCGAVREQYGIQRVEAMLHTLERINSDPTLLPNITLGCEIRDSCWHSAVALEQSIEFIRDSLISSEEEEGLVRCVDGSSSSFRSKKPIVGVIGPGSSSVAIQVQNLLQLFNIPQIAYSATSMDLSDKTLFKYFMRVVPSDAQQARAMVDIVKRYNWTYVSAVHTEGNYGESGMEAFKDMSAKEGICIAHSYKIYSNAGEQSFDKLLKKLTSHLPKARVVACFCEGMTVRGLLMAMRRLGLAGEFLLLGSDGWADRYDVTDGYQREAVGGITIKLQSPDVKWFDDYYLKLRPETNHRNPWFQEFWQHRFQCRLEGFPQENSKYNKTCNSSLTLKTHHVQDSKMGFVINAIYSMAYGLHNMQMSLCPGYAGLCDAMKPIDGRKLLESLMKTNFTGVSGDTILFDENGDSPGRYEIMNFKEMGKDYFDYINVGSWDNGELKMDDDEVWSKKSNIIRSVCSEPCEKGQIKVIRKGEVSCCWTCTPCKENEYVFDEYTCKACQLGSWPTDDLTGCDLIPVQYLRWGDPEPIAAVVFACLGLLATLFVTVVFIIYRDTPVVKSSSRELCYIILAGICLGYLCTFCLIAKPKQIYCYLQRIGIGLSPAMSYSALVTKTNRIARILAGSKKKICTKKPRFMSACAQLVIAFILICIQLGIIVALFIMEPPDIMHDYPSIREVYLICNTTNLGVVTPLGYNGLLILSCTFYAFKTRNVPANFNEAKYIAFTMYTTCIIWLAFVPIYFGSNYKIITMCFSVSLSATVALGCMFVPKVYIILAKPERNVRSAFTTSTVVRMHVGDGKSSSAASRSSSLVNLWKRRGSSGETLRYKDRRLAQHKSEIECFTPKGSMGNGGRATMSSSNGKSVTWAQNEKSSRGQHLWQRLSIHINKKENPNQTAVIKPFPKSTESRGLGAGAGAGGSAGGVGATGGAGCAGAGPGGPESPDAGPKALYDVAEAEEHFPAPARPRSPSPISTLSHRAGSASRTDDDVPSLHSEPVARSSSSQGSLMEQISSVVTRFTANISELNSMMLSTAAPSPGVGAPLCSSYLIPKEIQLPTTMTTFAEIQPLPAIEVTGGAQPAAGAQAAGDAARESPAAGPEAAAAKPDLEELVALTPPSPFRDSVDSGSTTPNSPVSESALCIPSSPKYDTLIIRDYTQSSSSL
pIC50: −log10 of the molar value.

{"columns": ["Structure as smiles", "pIC50"],
 "data": [
  ["Cc1ccncc1-c1cc(C(=O)Nc2ccc(Cl)cn2)c(F)cc1F", 6.01],
  ["Cc1cccc(NC(=O)c2cc(-c3cnccc3C)cc(C(F)(F)F)c2)n1", 5.94],
  ["Cc1cc(C(=O)Nc2ccc(F)cn2)cc(-c2cnccc2C)c1", 6.43],
  ["Cc1csc(NC(=O)c2cc(F)cc(-c3cnccc3C)c2)n1", 6.27],
  ["Cc1csc(NC(=O)c2cc(C#N)cc(-c3cnccc3C)c2)n1", 6.70],
  ["Cc1ccncc1-c1cc(F)c(F)c(C(=O)Nc2ccc(F)cn2)c1", 5.99],
  ["Cc1ncc(-c2cc(F)c(F)c(C(=O)Nc3ccc(F)cn3)c2)s1", 5.38],
  ["Cc1cccc(NC(=O)c2cc(F)c(F)c(-c3cnccc3C)c2)n1", 7.00]
]}
